Reference source for all entries: patent US5084454A

- assay.details: in vivo
- condition.context: mouse, po, ED50 Catalepsy
Could you please report measured ED50 at 6 h for the items listed next?
Express the result in mg/kg but write the number alone.

So what's the measured ED50 at 6 h for this one? O=C(CCCN1CCC(O)(c2ccc(Cl)cc2)CC1)c1ccc(F)cc1 [Haloperidol, reference compound]
2.2

So what's the measured ED50 at 6 h for this one? OC1(c2cccc(C(F)(F)F)c2)CCN(CC2CN(c3ccccc3)c3ccccc3O2)CC1 (stereo not shown)
20

So what's the measured ED50 at 6 h for this one? O=C1NCN(c2ccccc2)C12CCN(CC1CN(c3ccccc3)c3ccccc3O1)CC2 (stereo not shown)
30.8

So what's the measured ED50 at 6 h for this one? O=C1NCN(c2ccccc2)C12CCN(CC1CN(c3ccc(F)cc3)c3ccccc3O1)CC2 (stereo not shown)
75
